# system_under_test: furin, P09958;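 further: purified furin at 1:10 enzyme:substrate in 50 mM HEPES pH 7.5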
# Sequence (P09958 whole entry): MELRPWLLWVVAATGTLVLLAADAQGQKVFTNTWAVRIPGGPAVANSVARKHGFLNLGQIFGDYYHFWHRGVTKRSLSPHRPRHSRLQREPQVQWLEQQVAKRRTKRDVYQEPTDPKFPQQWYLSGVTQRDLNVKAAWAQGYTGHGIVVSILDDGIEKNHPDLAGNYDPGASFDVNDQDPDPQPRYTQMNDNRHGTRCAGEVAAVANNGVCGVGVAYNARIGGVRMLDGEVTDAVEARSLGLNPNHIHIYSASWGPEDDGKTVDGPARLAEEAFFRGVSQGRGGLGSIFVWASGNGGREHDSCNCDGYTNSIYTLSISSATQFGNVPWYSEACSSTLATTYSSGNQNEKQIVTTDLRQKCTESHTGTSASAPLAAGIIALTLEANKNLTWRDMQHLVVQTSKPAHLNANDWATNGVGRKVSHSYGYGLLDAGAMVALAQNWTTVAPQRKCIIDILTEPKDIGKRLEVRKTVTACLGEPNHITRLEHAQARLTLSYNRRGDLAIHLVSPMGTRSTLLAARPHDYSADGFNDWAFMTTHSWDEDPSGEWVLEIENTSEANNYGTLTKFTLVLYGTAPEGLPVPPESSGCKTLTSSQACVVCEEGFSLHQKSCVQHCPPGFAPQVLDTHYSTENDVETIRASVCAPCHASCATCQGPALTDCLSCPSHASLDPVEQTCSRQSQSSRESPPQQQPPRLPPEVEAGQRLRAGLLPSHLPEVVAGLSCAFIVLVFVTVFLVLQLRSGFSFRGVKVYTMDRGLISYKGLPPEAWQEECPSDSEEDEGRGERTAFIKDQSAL
# procedure_details: furin cleavage Z-score vs untreated control; higher = more cleavage, active = 3.5 or more, inactive = 1 or less, 8 variable residues between constant flanks
# experimental_parameters: 15 min
The list shows a part of the results. No count for the full screen is at hand.
Please enter 1 where furin cleavage Z-score is greater than or equal to 0.06, and -1 where it is lower.

Q) Confirm if furin cleavage Z-score reported for the sequence CARSLRFVTLAGNASASA [FS-1793] is 0.06 or above.
A) 1

Q) Confirm if furin cleavage Z-score reported for the sequence CARGKREAGLAGNASASA [FS-1950] is 0.06 or above.
A) 1

Q) Confirm if furin cleavage Z-score reported for the sequence CARSGRAKRFAGNASASA [FS-1271] is 0.06 or above.
A) 1

Q) Confirm if furin cleavage Z-score reported for the sequence CARLRRVICAAGNASASA [FS-2997] is 0.06 or above.
A) -1

Q) Confirm if furin cleavage Z-score reported for the sequence CAFYLRRRRRAGNASASA [FS-527] is 0.06 or above.
A) 1

Q) Confirm if furin cleavage Z-score reported for the sequence CARGKRFRPRAGNASASA [FS-2209] is 0.06 or above.
A) -1

Q) Confirm if furin cleavage Z-score reported for the sequence CAIKKRFQTTAGNASASA [FS-1881] is 0.06 or above.
A) -1

Q) Confirm if furin cleavage Z-score reported for the sequence CARSGRGPFGAGNASASA [FS-1925] is 0.06 or above.
A) -1

Q) Confirm if furin cleavage Z-score reported for the sequence CARFVRDACAAGNASASA [FS-2928] is 0.06 or above.
A) 1

Q) Confirm if furin cleavage Z-score reported for the sequence CANYTFALWRAGNASASA [HC1199] is 0.06 or above.
A) -1

Q) Confirm if furin cleavage Z-score reported for the sequence CAREKKDVPLAGNASASA [FS-3187] is 0.06 or above.
A) 1

Q) Confirm if furin cleavage Z-score reported for the sequence CAGKSTKVPAAGNASASA [HC778] is 0.06 or above.
A) 1

Q) Confirm if furin cleavage Z-score reported for the sequence CARFIRGVVDAGNASASA [FS-2332] is 0.06 or above.
A) 1

Q) Confirm if furin cleavage Z-score reported for the sequence CADDGRTCVDAGNASASA [FS-1981] is 0.06 or above.
A) -1

Q) Confirm if furin cleavage Z-score reported for the sequence CARPRRAKRFAGNASASA [FS-1069] is 0.06 or above.
A) 1
